# reported MIC; entries follow
Test system: Mycoplasma gallisepticum
Type: cell-based
particulars: Mycoplasmoides gallisepticum; Veterinary organism Mycoplasma gallisepticum; agar-dilution
reported metric: MIC (µg/mL)

INSERT INTO assay_data (molecule, assayed_system, value_units, value_qualifier, observed_result) VALUES
  ('Cc1c(O)cc2c(c1O)C(=O)[C@@]1(Cl)C[C@@H](Cl)C(C)(C)O[C@@]1(C[C@H]1C(C)(C)[C@@H](Cl)CC[C@]1(C)O)C2=O [A80915C]', 'Mycoplasma gallisepticum', 'µg/mL', '=', 25),
  ('Cc1c([O-])c([N+]#N)c2c(c1O)C(=O)[C@@]1(Cl)C[C@@H](Cl)C(C)(C)O[C@@]1(C[C@H]1C(C)(C)[C@@H](Cl)CC[C@]1(C)O)C2=O [A80915D]', 'Mycoplasma gallisepticum', 'µg/mL', '>', 50),
  ('C=C1CCC(Cl)C(C)(C)C1CC12OC(C)(C)C(Cl)CC1(Cl)C(=O)c1c(cc(O)c(C)c1O)C2=O (stereo not shown) [A80915A]', 'Mycoplasma gallisepticum', 'µg/mL', '=', 0.78),
  ('C=C1CCC(Cl)C(C)(C)C1CC12OC(C)(C)C(Cl)CC1(Cl)C(=O)c1c(O)c(C)c([O-])c([N+]#N)c1C2=O (stereo not shown) [A80915B]', 'Mycoplasma gallisepticum', 'µg/mL', '=', 0.1);
